- Test system: HS 578T breast
- procedureDetails: NCI-60 one-dose screen, 48 h
- studyConditions: 10 µM
About 83,000 compounds went through this panel and 20% of them were active in at least one assay; those are over-represented in the sample as a whole. The source made the active and inactive calls. How the source made its calls: active means growth percent below 10; inactive means the rest.
Outcome codes: active, inactive

- O=[N+]([O-])C1CC2C=CC1C2 (stereo unspecified): inactive
- COc1ccc(COC(=O)CC(C)C)cc1: inactive
- C/C=C\COc1cc(C)c(Cl)cc1Cl: inactive
- CCCCCCCCCCCCCC[n+]1ccccc1: active
- COc1cc(C2CC(=O)Nc3c2c(C)nn3-c2nc3ccccc3[nH]2)cc(OC)c1O (stereo unspecified): active
- CCCC(C)c1ccc(OCCCCCCN2CCNCC2)cc1 (stereo unspecified): inactive

----------
- System: A549/ATCC NSCLC
- procedureDetails: NCI-60 one-dose screen, 48 h (100 = growth as untreated, 0 = no growth, -100 = all killed)
- studyConditions: 10 µM
About 83,000 compounds went through this panel and 20% of them were active in at least one assay; those are over-represented in the sample as a whole.
readoutType: growth (%)

• COc1cc(-c2nc3ccccc3[nH]2)ccc1OCC(=O)N=Nc1c(O)[nH]c2ccccc12 = 105
• O/N=C1\CCC2CCCCC2C1 (stereo not drawn) = 96.6
• O=C(NNc1nc(N2CCCC2)nc(N2CCCC2)n1)c1ccccc1 = 104
• O=C(O)c1cc(C(F)(F)F)cc(C(F)(F)F)c1 = 101
• O=C1/C(=C/c2ccc(O)cc2O)N=C2SCCCN12 = 92.1
• C=CCNC(=S)NN = 69.6
• CC1=CC2OC34COC3CC(OC(=O)C(F)(F)F)C4(C)C2(C)CC1 (stereo not drawn) = 97.8
• COc1ccc(C(=O)n2nc(CC(=O)NCc3ccccc3)nc2N)cc1 = 109
• CCN(CC)CC(O)Cc1ccc(OC)cc1 (stereo not drawn) = 104
• C#CCn1c(-c2cccc(OCCCCl)c2)nc2c1c(=O)n(C)c(=O)n2C = 92
• Nc1nsc(C(=O)c2ccc(O)cc2)n1 = 83.7
• CCOC(=O)c1cc2c(n1Cc1ccccc1)-c1oncc1CC2 = 89.1
• N#CC1C=Cc2c(ccc3ccccc23)N1C(=O)c1ccccc1 (stereo not drawn) = 26.9

----------
- Test system: ACHN renal
- procedureDetails: NCI-60 one-dose screen, 48 h
- studyConditions: 10 µM
Compounds without any hit were thinned out: in the full panel of roughly 83,000, 20% have a hit. Activity calls are given as the source filed them. The calls were made as follows: active = growth percent below 10; inactive = the rest.
Outcome codes: active, inactive

• CC1=CC2OC34COC3CC(OC(=O)C(F)(F)F)C4(C)C2(C)CC1 (stereo not drawn) = inactive
• COc1cc2c3c(cccc3c1)C(=O)N(CCN1CCCC1)C2=O = active
• COc1ccc(Cn2cc3c(c2-c2cc(OC)c(OC)c(OC)c2)CCc2cnoc2-3)cc1N = inactive

----------
- Tested on: NCI/ADR-RES ovarian
- procedureDetails: NCI-60 one-dose screen, 48 h (100 = growth as untreated, 0 = no growth, -100 = all killed)
- studyConditions: 10 µM
The panel holds about 83,000 compounds, 20% with a hit somewhere; the sample as a whole holds those more often.
Entries and their growth
readoutType: growth (%)

• COc1cc(Cl)cc(-c2nn(-c3cccc(NC(=O)Nc4cccc(C(F)(F)F)c4)c3)cc2-c2ccncc2)c1 = 3.58
• Brc1ccc(-c2cn3ccnc3c(-c3ccc(Br)cc3)n2)cc1 = 19.7
• C[n+]1c(/C=C/c2c[nH]c3ccccc23)ccc2ccccc21 = 100
• O=C1CC(c2cccc(-c3cccnc3)c2)=Nc2ccc(Br)cc2N1 = 19
• Cc1cc(O)c(C2=NN(c3ccc(S(N)(=O)=O)cc3)C(c3ccc(N(C)C)cc3)C2)c(C)c1Cl (configuration not stated) = 85.6
• C/C(=N\NC(N)=S)C(C)(C)O = 32.7
• CCOC(=O)c1ccc(N(C=O)CCC(=O)CCl)cc1 = 21.4
• Cn1c(=O)c2[nH]c(C(O)c3ccc(Cl)cc3)nc2n(C)c1=O (configuration not stated) = 97.9
• CCOc1ccc(-n2cc(-c3ccc(N(C)C)cc3)[n+]3c2CCCCC3)cc1 = 92.8
• O=C(NC1CCN(Cc2ccccc2)CC1)c1cc(-c2ccncc2)nc2ccc(Cl)cc12 = 11.2
• NC(=O)C1CCCN(Cc2c[nH]c3ccccc23)C1 (configuration not stated) = 94.8
• Nc1nsc(C(=O)c2ccc(O)cc2)n1 = 103
